Assay: qHTS assay for small molecule agonists of the p53 signaling pathway - cell viability (AID 651633); note: nearly all actives have a fitted effect of over 30% in size
Conditions: p53RE-bla HCT-116 viability, ATP luminescence, 16 h; series mostly up to 83.3 µM
Records with an inconclusive call do not appear. Calls of active or inactive are those of the source. Calls come from the whole dose curve.
The reply should name one outcome from active, inactive

Inquiry: Give the logged outcome of this assay for the following compound: CCCCCCCCCCCCCCCCOS(=O)(=O)O
Reply text: inactive

Inquiry: Give the logged outcome of this assay for the following compound: CCOC(=O)C1=C[C@]2(CC)CCCN3CCc4c(n1c1ccccc41)[C@@H]32
Reply text: inactive

Inquiry: Give the logged outcome of this assay for the following compound: O=C1OC(=O)C2C3C=CC(C3)C12 (stereo not drawn)
Reply text: inactive

Inquiry: Give the logged outcome of this assay for the following compound: CCCCCCCC/C=C\CCCCCCCC(=O)OCC
Reply text: inactive

Inquiry: Give the logged outcome of this assay for the following compound: COc1cc2nc(N3CCN(C(=O)C4COc5ccccc5O4)CC3)nc(N)c2cc1OC (stereo not drawn)
Reply text: inactive

Inquiry: Give the logged outcome of this assay for the following compound: CC(C)=CCC/C(C)=C/CC/C(C)=C/CO
Reply text: active

Inquiry: Give the logged outcome of this assay for the following compound: O=C(c1ccc(F)cc1)C1CCN(CCn2c(=S)[nH]c3ccccc3c2=O)CC1
Reply text: inactive

Inquiry: Give the logged outcome of this assay for the following compound: C[C@H]1C[C@H]2[C@@H]3CCC4=CC(=O)C=C[C@]4(C)[C@@]3(Cl)[C@@H](O)C[C@]2(C)[C@@]1(O)C(=O)CO
Reply text: inactive

Inquiry: Give the logged outcome of this assay for the following compound: C[Si](C)(CCCN)O[Si](C)(C)CCCN
Reply text: inactive

Inquiry: Give the logged outcome of this assay for the following compound: CN(C)C(=O)NC1(c2ccccc2)CCN(CC[C@@]2(c3ccc(F)c(F)c3)CN(C(=O)c3ccccc3)CCO2)CC1
Reply text: inactive

Inquiry: Give the logged outcome of this assay for the following compound: CN1CCN(C(c2ccccc2)c2ccccc2)CC1
Reply text: inactive

Inquiry: Give the logged outcome of this assay for the following compound: CN(C)CCN(Cc1ccc(Cl)cc1)c1ccccn1
Reply text: inactive

Inquiry: Give the logged outcome of this assay for the following compound: O=C(O)C1(C(=O)Nc2ccc(Cl)cc2Cl)CC1
Reply text: inactive

Inquiry: Give the logged outcome of this assay for the following compound: ClCCOCCOCCCl
Reply text: inactive

Inquiry: Give the logged outcome of this assay for the following compound: CCC(=O)O[C@]1(C(=O)CCl)[C@@H](C)C[C@H]2[C@@H]3CCC4=CC(=O)C=C[C@]4(C)[C@@]3(F)[C@@H](O)C[C@@]21C
Reply text: inactive

Inquiry: Give the logged outcome of this assay for the following compound: CCCCCCCCCCCC(=O)OC[C@@H](O)[C@H]1OC[C@H](OCCO)[C@H]1OCCO
Reply text: inactive

Inquiry: Give the logged outcome of this assay for the following compound: Cc1oc2c(NC(=O)c3c(Cl)cccc3Cl)cccc2c1C(C)(C)O
Reply text: inactive

Inquiry: Give the logged outcome of this assay for the following compound: O=C(O)c1ccc(-n2nc(-c3ccccc3O)nc2-c2ccccc2O)cc1
Reply text: active

Inquiry: Give the logged outcome of this assay for the following compound: CC1=CC[C@H](C(C)C)C=C1
Reply text: inactive

Inquiry: Give the logged outcome of this assay for the following compound: C[C@@H]1C[C@H]2O[C@@]3(O[C@@H]2C(C)(C)O)[C@H](O)[C@@]2(C)[C@@H]4CC[C@H]5C(C)(C)[C@@H](O[C@@H]6OC[C@@H](O)[C@H](O)[C@H]6O)CC[C@@]56C[C@@]46CC[C@]2(C)[C@@H]13
Reply text: inactive

Inquiry: Give the logged outcome of this assay for the following compound: Clc1ccc2c(c1)CCc1cccnc1C2=C1CCNCC1
Reply text: inactive

Inquiry: Give the logged outcome of this assay for the following compound: NCc1ccccc1Sc1ccccc1CO
Reply text: inactive

Inquiry: Give the logged outcome of this assay for the following compound: Nc1c(CC(=O)O)cccc1C(=O)c1ccc(Br)cc1
Reply text: inactive

Inquiry: Give the logged outcome of this assay for the following compound: COS(=O)(=O)C(F)(F)F
Reply text: inactive

Inquiry: Give the logged outcome of this assay for the following compound: CC1=CC=C(C(C)C)CC1
Reply text: inactive

Inquiry: Give the logged outcome of this assay for the following compound: CCCCC(=O)OCC(=O)[C@H]1[C@H](C)C[C@H]2[C@@H]3C[C@H](F)C4=CC(=O)C=C[C@]4(C)[C@@]3(F)[C@@H](O)C[C@@]21C
Reply text: inactive

Inquiry: Give the logged outcome of this assay for the following compound: CCOC(=O)NCCOc1ccc(Oc2ccccc2)cc1
Reply text: inactive

Inquiry: Give the logged outcome of this assay for the following compound: CCCCCCCCCCCc1ccccc1
Reply text: inactive

Inquiry: Give the logged outcome of this assay for the following compound: CN(C)CCCN1c2ccccc2Sc2ccccc21
Reply text: inactive

Inquiry: Give the logged outcome of this assay for the following compound: Nc1cccc([N+](=O)[O-])c1
Reply text: inactive

Inquiry: Give the logged outcome of this assay for the following compound: Nc1cccc(S(=O)(=O)c2cccc(N)c2)c1
Reply text: inactive

Inquiry: Give the logged outcome of this assay for the following compound: COc1ccc(C(=O)N2CCN(CC(=O)N3CCOCC3)CC2)cc1
Reply text: inactive

Inquiry: Give the logged outcome of this assay for the following compound: O=C(Nc1ccc(S(=O)(=O)N2CCOCC2)cc1)c1cc(Cl)ccc1NS(=O)(=O)c1ccc(Cl)s1
Reply text: active

Inquiry: Give the logged outcome of this assay for the following compound: Cc1ncc(CO)c(C=O)c1O
Reply text: inactive

Inquiry: Give the logged outcome of this assay for the following compound: O=C(O)C(S)C(S)C(=O)O (stereo not drawn)
Reply text: inactive

Inquiry: Give the logged outcome of this assay for the following compound: O=C(O)c1ccco1
Reply text: inactive

Inquiry: Give the logged outcome of this assay for the following compound: O=C(NCCO[N+](=O)[O-])c1cccnc1
Reply text: inactive

Inquiry: Give the logged outcome of this assay for the following compound: C/C=C/C=C/CO
Reply text: inactive

Inquiry: Give the logged outcome of this assay for the following compound: Cc1cccc(C)c1NC(=O)CN(CC(=O)O)CC(=O)O
Reply text: inactive

Inquiry: Give the logged outcome of this assay for the following compound: C[N+](C)(C)CCOC(=O)CCC(=O)OCC[N+](C)(C)C
Reply text: inactive

Inquiry: Give the logged outcome of this assay for the following compound: O=C1c2ccccc2S(=O)(=O)N1CCCCN1CCN(c2ncccn2)CC1
Reply text: inactive

Inquiry: Give the logged outcome of this assay for the following compound: CCCCO
Reply text: inactive

Inquiry: Give the logged outcome of this assay for the following compound: CCCCCCc1ccc(-c2ccc(C#N)cc2)cc1
Reply text: inactive
